Assay: Faecal excretion and total recovery in healthy volunteers
Type: in vivo, human (healthy volunteers)
Conditions: human, urine and faeces, po; day 6, steady state; daily ingested total dose 1500 mg 5-ASA; read-out: mean recovery rate
measure: recovery (%)
A number alone suffices; assume %.

Request: Requested field: recovery. Item: `Nc1ccc(O)c(C(=O)O)c1`
Result: 83

----------
Experiment: Ileostomy effluent study (5-ASA / 5-AcASA excretion) in ileostomy patients
Type: in vivo, human (ileostomy patients)
Settings: human, ileostomy effluent, po; 8 hours after ingestion; 500 mg 5-ASA; read-out: ingested total dose collected in the ileostomy bags
Source text: DETERMINATION OF 5-[…] BIOLOGICAL FLUIDS […] ILEOSTOMY PATIENTS Six ileostomy patients colectomized because of colitis ulcerosa with intact small bowel were studied. Their distribution as to sex, age, height, body weight, time since colectomy, small bowel transit time (carmine), and acetylator phenotype (v. Fischer and Klotz, op. cit.) (assessed by sulphadimidine) are shown below in talbe I. ILEOSTOMY PATIENTS […] […]
measure: dose excreted at 8 h (%)
A number alone suffices; assume %.

Request: Requested field: dose excreted at 8 h. Item: `Nc1ccc(O)c(C(=O)O)c1`
Result: 58
